tgt: rhCETP (Homo sapiens (Human))
Sequence (P11597 18-493): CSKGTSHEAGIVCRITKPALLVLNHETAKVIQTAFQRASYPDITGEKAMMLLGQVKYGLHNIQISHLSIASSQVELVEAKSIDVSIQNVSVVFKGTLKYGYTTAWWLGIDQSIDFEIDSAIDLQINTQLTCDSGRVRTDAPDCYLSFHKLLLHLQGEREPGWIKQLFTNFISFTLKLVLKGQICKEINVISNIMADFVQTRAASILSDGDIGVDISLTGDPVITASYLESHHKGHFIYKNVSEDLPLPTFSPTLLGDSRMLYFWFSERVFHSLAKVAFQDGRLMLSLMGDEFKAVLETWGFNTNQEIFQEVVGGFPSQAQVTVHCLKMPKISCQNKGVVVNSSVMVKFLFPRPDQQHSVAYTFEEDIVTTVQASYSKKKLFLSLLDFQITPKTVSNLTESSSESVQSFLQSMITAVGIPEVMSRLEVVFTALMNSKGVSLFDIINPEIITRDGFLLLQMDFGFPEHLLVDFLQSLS
protocol-text: CETP in vitro assay (CETP Activity Kit, fluorescence, rhCETP)
Type: biochemical
condition-parameters: CETP inhibition; Table 1 does not name the assay; read-out: IC50 (nM), Inhibitory Activity of Compounds
readout-type: IC50 (nM)

Solved cases (5 shown):
compound: CCC(CC)OC(=O)N1C[C@@H](N(Cc2cc(C(F)(F)F)cc(C(F)(F)F)c2)c2ncc(-c3cnn(C)c3)cn2)C[C@H]1CC [Example 9-1]
unit-of-measure: nM
IC50: 41

compound: CC[C@@H]1C[C@H](N(Cc2cc(C(F)(F)F)cc(C(F)(F)F)c2)c2ncc(-c3cnn(C)c3)cn2)CN1C(=O)N1CCOCC1 [Example 17]
unit-of-measure: nM
IC50: 32

compound: CC[C@@H]1C[C@H](N(Cc2cc(C(F)(F)F)cc(C(F)(F)F)c2)c2ncc(-c3cnn(C)c3)cn2)CN1c1nc(N2CCC(O)CC2)ncc1Cl [Example 23-10]
unit-of-measure: nM
IC50: 30

compound: CC[C@@H]1C[C@H](N(Cc2cc(C(F)(F)F)cc(C(F)(F)F)c2)c2ncc(-c3cnn(C)c3)cn2)CN1C(=O)N(C)C [Example 18]
unit-of-measure: nM
IC50: 63

compound: CC[C@@H]1C[C@H](N(Cc2cc(C(F)(F)F)cc(C(F)(F)F)c2)c2ncc(-c3cnn(C)c3)cn2)CN1C(=O)OC1CCCC1 [Example 9-3]
unit-of-measure: nM
IC50: 70

A. CC[C@@H]1C[C@H](N(Cc2cc(C(F)(F)F)cc(C(F)(F)F)c2)c2ncc(-c3cn[nH]c3)cn2)CN1C(=O)OC(C)C [Example 14]
B. CC[C@@H]1C[C@H](N(Cc2cc(C(F)(F)F)cc(C(F)(F)F)c2)c2ncc(-c3cnn(C)c3)cn2)CN1C(=O)OCC(C)C [Example 6-1]
Prompt line: Parameter check: reported IC50 is higher for which label, A or B ? Please indicate the selected item by its label.
Response line: B
(B: 69 nM, A: 34 nM)
